Recorded values, source patent US20240294661A1.

TGT: T1, TFECDHis (extracellular domain of tissue factor, amino acid 1-251, with C-terminal His tag) (human, UniProt P13726 33-251)
T1 construct: range 1-251; The stated range 1-251 starts at residue 1 of the precursor; also called recombinant extracellular domain of TF
ASSAY PROTOCOL: ELISA, coated TFECDHis
READOUT NAME: EC50 (µg/mL)
Give just the numeric value; µg/mL need not be written.

## Input Given the binder HuMab-TF-098-vcMMAE (antibody, IgG1, V domains shown, vcMMAE drug-linker alkylated to cysteines of the reduced antibody (positions not given), DAR 3.9 by RP-HPLC, 3.7 by HIC) VH: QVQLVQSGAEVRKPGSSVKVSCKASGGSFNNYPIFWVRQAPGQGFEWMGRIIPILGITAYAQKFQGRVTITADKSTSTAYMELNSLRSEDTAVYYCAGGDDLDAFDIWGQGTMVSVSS VL: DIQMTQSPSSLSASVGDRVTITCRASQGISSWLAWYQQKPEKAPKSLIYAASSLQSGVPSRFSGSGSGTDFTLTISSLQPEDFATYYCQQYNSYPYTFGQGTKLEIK , write its reported EC50.
## Output 0.426

## Input Provide only the value of recorded EC50 for Anti-TF HuMab 111 (antibody, IgG1, V domains shown, full length, fully human monoclonal IgG1,kappa) VH: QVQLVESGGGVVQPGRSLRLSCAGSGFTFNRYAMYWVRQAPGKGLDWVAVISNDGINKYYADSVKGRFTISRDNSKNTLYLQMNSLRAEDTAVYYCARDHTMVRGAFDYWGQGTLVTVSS VL: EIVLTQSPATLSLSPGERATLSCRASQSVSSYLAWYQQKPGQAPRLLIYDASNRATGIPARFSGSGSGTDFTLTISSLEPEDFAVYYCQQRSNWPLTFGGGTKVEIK
## Output 0.377

## Input Return EC50 for the following binder: HuMab-TF-011-mcMMAF (antibody, IgG1, V domains shown, mcMMAF drug-linker alkylated to cysteines of the reduced antibody (positions not given), DAR 3.9 by RP-HPLC, 4.1 by HIC) VH: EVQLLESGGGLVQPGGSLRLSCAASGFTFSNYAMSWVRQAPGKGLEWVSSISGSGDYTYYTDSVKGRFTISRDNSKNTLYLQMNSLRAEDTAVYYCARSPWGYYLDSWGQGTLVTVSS VL: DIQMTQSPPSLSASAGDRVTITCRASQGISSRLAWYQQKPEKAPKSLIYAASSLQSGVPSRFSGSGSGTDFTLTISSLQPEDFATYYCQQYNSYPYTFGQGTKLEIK
## Output 0.431
